target_of_assay: rgyr (reverse gyrase, full-length wild type) (Thermotoga maritima)
Sequence (O51934 1-1104): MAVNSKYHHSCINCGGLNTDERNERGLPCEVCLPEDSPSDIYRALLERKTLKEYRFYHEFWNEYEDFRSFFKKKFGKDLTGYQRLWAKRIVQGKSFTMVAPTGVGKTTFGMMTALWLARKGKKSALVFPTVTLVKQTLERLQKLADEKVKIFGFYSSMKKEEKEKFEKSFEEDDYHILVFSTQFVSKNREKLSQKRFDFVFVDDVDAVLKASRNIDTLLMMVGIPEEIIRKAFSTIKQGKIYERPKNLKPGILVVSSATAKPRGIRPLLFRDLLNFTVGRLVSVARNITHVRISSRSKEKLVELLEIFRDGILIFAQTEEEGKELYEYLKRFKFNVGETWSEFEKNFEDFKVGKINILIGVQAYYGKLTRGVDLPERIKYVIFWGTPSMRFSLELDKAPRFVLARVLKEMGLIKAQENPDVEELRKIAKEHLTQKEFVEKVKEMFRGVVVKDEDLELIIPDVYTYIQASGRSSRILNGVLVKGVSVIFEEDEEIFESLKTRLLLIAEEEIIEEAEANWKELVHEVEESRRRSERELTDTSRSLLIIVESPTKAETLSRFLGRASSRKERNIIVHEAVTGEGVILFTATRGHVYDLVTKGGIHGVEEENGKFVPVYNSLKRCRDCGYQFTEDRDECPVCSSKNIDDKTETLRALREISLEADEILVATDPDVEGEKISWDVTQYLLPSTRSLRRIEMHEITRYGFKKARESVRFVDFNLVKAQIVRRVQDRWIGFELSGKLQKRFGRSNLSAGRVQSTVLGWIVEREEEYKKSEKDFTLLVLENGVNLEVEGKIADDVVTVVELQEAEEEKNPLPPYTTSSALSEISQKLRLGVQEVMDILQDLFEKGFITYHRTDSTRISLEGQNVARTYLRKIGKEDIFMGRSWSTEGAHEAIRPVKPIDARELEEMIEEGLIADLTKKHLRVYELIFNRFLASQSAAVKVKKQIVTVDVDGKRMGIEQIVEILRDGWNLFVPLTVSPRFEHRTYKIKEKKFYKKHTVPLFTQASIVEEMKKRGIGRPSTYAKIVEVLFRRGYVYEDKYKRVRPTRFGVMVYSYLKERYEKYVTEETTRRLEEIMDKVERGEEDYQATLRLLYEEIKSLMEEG
metric_name: Kd (µM)
Express the result in µM but write the number alone.

## Task Provide measured Kd on rgyr (reverse gyrase, full-length wild type) (Thermotoga maritima) for Nc1ncnc2c1ncn2[C@@H]1O[C@H](COP(=O)(O)OP(=O)(O)NP(=O)(O)O)[C@@H](O)[C@H]1O [ADPNP] please.
## Result 10
